Property: plaque count per well; scope: individual compounds
Test system: Toxoplasma gondii RH tachyzoites
TEST SUMMARY: plaque count per well; higher = less inhibition; extreme values may be limits of the assay
REPORTED CONDITIONS: 10 µM; 8-10 days
Write no unit; give the number alone.

These recorded examples may help you get a feel for the data.
COMPOUND	plaque count per well
COc1cccc(C(=O)NC(c2ccc(C)cc2)c2cc(Cl)c3cccnc3c2O)c1 (stereo unspecified)	0
COc1ccc2c(c1OC)C(=O)N1c3ccccc3N=C(c3ccc(C)cc3)CC21 (stereo unspecified)	32
Cc1ccc(CN2CCC(C(=O)Nc3ccc(-c4cc5ccccc5[nH]4)cc3)CC2)o1	38
COc1cccc(-c2nn(C)c3sc(C(=O)NCCN4CCN(c5ccccc5F)CC4)cc23)c1	31
CC(=O)NCCc1nc2ccccc2n1Cc1ccc(C(C)C)cc1	33
Cc1cc(=O)oc2c1ccc1oc(C(=O)c3ccccc3)c(C)c12	28

Given the compound COc1cccc(Nc2nc(N)c3ccccc3n2)c1 , what is its reported plaque count per well?
0

Given the compound Cn1c(=O)c2cc(C(=O)NCCCN3CCCCCC3)sc2c2ccccc21 , what is its reported plaque count per well?
25

Given the compound CC1CCN(Cc2ccc(NC(=O)c3cc4ccc5cccnc5c4[nH]3)cc2)CC1 , what is its reported plaque count per well?
18

Given the compound O=C1c2ccccc2-c2nnc(-c3ccc(Br)cc3)cc21 , what is its reported plaque count per well?
24

Given the compound CCOc1ccc(N2C(N)=NC(N)=NC2(C)C)cc1 , what is its reported plaque count per well?
28

Given the compound CCOc1ccc(CN2CCN(CC(O)COc3ccc(OCC(O)CN4CCN(Cc5ccc(OCC)cc5)CC4)cc3)CC2)cc1 (stereo unspecified) , what is its reported plaque count per well?
0

Given the compound CN1C=C(c2ccc3ccccc3n2)C(c2c[nH]c3ccccc23)c2ccccc21 (stereo unspecified) , what is its reported plaque count per well?
0

----------
TARGET SYSTEM: Toxoplasma gondii RH tachyzoites
TEST SUMMARY: EC50 growth inhibition (48 h luciferase)
PROPERTY NAME: EC50 growth inhibition (nM)
Quick reminder: number only, in nM, skip the unit.

These recorded examples may help you get a feel for the data.
COMPOUND	EC50 growth inhibition, nM
O=c1nc(C=Cc2ccc(Br)cc2)oc2ccccc12	116
OC(CNCc1ccccc1)Cn1c2ccccc2c2ccccc21 (stereo not given)	286
Oc1c(C(Nc2ccccn2)c2cccc(Oc3ccccc3)c2)ccc2cccnc12 (stereo not given)	1080
CCCOCc1cc(CN2CCN(c3cccc(Cl)c3)CC2)c(O)c2ncccc12	1500

Now consider a different compound.
Given the compound Nc1nc(Nc2cccc(F)c2)nc2ccccc12 , what is its reported EC50 growth inhibition?
8210

----------
System: Toxoplasma gondii RH tachyzoites
TEST SUMMARY: % growth inhibition vs DMSO (48 h luciferase); higher = more inhibition
REPORTED CONDITIONS: 10 µM
PROPERTY NAME: % growth inhibition

COMPOUND	% growth inhibition
Oc1ccc(-c2nc(-c3ccc4oc5ccc(-c6[nH]c(-c7ccc(O)cc7)nc6-c6ccccc6)cc5c4c3)c(-c3ccccc3)[nH]2)cc1	< 0%
O=[N+]([O-])c1ccc(C=NNc2nc3ccccc3[nH]2)cc1	< 0%
CC(=O)Nc1nnc(SCc2c(C)cc(C(C)(C)C)cc2C)s1	< 0%

Given the compound Cc1ccc(-c2cc3c(nn2)-c2ccccc2C3=O)cc1 , what is its reported % growth inhibition?
< 0%

Given the compound COc1ccccc1CNC(=O)C1c2ccccc2C(=O)N(CC(C)C)C1c1cccs1 (stereo not drawn) , what is its reported % growth inhibition?
< 0%

Given the compound CCOc1ccc(/C=C/c2nc(=O)c3ccccc3o2)cc1 , what is its reported % growth inhibition?
97.9%

Given the compound Fc1ccc2[nH]c3c(NCCCN4CCOCC4)ncnc3c2c1 , what is its reported % growth inhibition?
34.5%

Given the compound CCOc1cc(CNC(C)C(O)c2ccccc2)cc(Cl)c1OCC (stereo not drawn) , what is its reported % growth inhibition?
15%

----------
Property: % growth inhibition; scope: individual compounds
System: Toxoplasma gondii RH tachyzoites
TEST SUMMARY: % growth inhibition vs DMSO (48 h luciferase); higher = more inhibition
REPORTED CONDITIONS: 10 µM
Quick reminder: number only, in %, skip the unit.

COMPOUND	TARGET SYSTEM	% growth inhibition (%)
CCCCCn1c(=N)n(CC(O)COc2cccc(C)c2)c2ccccc21 (stereo not given)	Toxoplasma gondii RH tachyzoites	99.5

Given the compound O=C(Nc1ccc(Cl)c(Cl)c1)Nc1ccc(Cl)c(Cl)c1 , what is its reported % growth inhibition?
100

Given the compound CCCCC(O)(c1ccc(Cl)cc1)C(CN1CCOCC1)c1ccc(Cl)cc1 (stereo not given) , what is its reported % growth inhibition?
99.1

----------
Property: plaque count per well; scope: individual molecules
Test system: Toxoplasma gondii RH tachyzoites
TEST SUMMARY: plaque count per well; higher = less inhibition; extreme values may be limits of the assay
REPORTED CONDITIONS: 10 µM; 8-10 days
Write no unit; give the number alone.

These recorded examples may help you get a feel for the data.
MOLECULE	TARGET SYSTEM	READING
CCn1c(SCC(=O)Nc2cc(C(F)(F)F)ccc2Cl)nc2ccccc2c1=O	Toxoplasma gondii RH tachyzoites	26
COc1ccc2sc(N(Cc3cccnc3)C(=O)c3ccc(C#N)cc3)nc2c1	Toxoplasma gondii RH tachyzoites	21
Clc1ccc2c(N3CCCC3)ccnc2c1	Toxoplasma gondii RH tachyzoites	25
CC(C)(C)c1ccc(O)c(CNC2CCCCC2)c1	Toxoplasma gondii RH tachyzoites	0
COc1ccc(OC)c(C2C3=C(CC(C)(C)CC3=O)N(c3ccc(Cl)c(Cl)c3)C3=C2C(=O)CC(C)(C)C3)c1	Toxoplasma gondii RH tachyzoites	38
CCN(Cc1ccccc1)C1CCN(Cc2cc(Br)ccc2O)CC1	Toxoplasma gondii RH tachyzoites	24
O=C(Nc1ccc(Cl)cc1)N1CCN(c2ccc3nncn3n2)CC1	Toxoplasma gondii RH tachyzoites	22
COc1ccc(CCNC(=O)c2cc(S(=O)(=O)N3CC(C)CC(C)C3)ccc2Sc2ccc(F)cc2)cc1OC (centres undefined)	Toxoplasma gondii RH tachyzoites	28

Given the molecule COc1ccc(-c2c(C)nn3c(N)c(C#N)cnc23)cc1OC , what is its reported plaque count per well?
22

Given the molecule COc1cc(C(=O)Nc2nc3c(cc4c5c(cccc53)CC4)s2)cc(OC)c1OC , what is its reported plaque count per well?
38

Given the molecule CCCCc1c(CCC)c(=N)c2ccccc2n1C , what is its reported plaque count per well?
23

Given the molecule OCCNc1nc(Nc2ccc(Cl)c(Cl)c2)nc2ccccc12 , what is its reported plaque count per well?
0

Given the molecule CC(C)(C)c1ccc(C(=O)Nc2nc3ccccc3s2)cc1 , what is its reported plaque count per well?
33

Given the molecule CCOc1ccccc1CN1CCc2nc3cc(C(C)(C)C)nn3c(O)c2C1 , what is its reported plaque count per well?
28

----------
Test system: Toxoplasma gondii RH tachyzoites
TEST SUMMARY: plaque count per well; higher = less inhibition; extreme values may be limits of the assay
REPORTED CONDITIONS: 10 µM; 8-10 days
Property: plaque count per well; scope: individual compounds
Write no unit; give the number alone.

Given the compound Cc1cc(C)c2nc(N3CCC(C(=O)NCCCN4CCC(N5CCCCC5)CC4)CC3)sc2c1 , what is its reported plaque count per well?
16

Given the compound CCN(CC)S(=O)(=O)c1ccc(-c2csc(Nc3ccc(C)c(C)c3)n2)cc1 , what is its reported plaque count per well?
26

Given the compound Nc1ccn([C@@H]2O[C@H](CO)[C@@H](O)[C@H]2O)c(=O)n1 , what is its reported plaque count per well?
29

Given the compound Cn1c(C(=O)c2cccc3ccccc23)nc2ccccc21 , what is its reported plaque count per well?
24

Given the compound COc1ccc(N2CCN(C(CNC(=O)C3CCCCC3)c3ccc4c(c3)OCO4)CC2)cc1 (stereo not given) , what is its reported plaque count per well?
23

Given the compound COc1cccc(C2(C)Nc3ccccc3-c3nc4ccccc4n32)c1 (stereo not given) , what is its reported plaque count per well?
21

Given the compound CCCC(c1nnnn1C1CCCCC1)N1CCN(C(=O)c2ccco2)CC1 (stereo not given) , what is its reported plaque count per well?
24

Given the compound CCCN(CCC)CC(O)COc1ccccc1C(=O)Nc1ccccc1 (stereo not given) , what is its reported plaque count per well?
25

Given the compound O=C(NC1CCCCC1)C(c1cccs1)N(CCc1ccccc1)C(=O)c1ccco1 (stereo not given) , what is its reported plaque count per well?
39

Given the compound CC(C)CNC(=O)c1c(N)n(CCc2ccccc2F)c2nc3ccccc3nc12 , what is its reported plaque count per well?
28

Given the compound CCc1c(C)c(=N)c2ccccc2n1C , what is its reported plaque count per well?
25

Given the compound Cc1ccc(F)cc1NC(=O)c1cc(Cl)ccc1Nc1ccccc1 , what is its reported plaque count per well?
26

Given the compound COc1ccc(-n2ccnc2SCC(=O)Nc2cc(C)ccc2C)c(OC)c1 , what is its reported plaque count per well?
31

Given the compound CCOc1c(Cl)cc(CNC(C)C(O)c2ccccc2)cc1OC (stereo not given) , what is its reported plaque count per well?
0

Given the compound COc1ccc(-c2nonc2NC(=O)c2cccc(C)c2)cc1OC , what is its reported plaque count per well?
28

Data provenance: the supplement of paper PMC5770543
